Source listed as patent US20060058325A1.

molecular target: Aurora-A (Homo sapiens)
Sequence (O14965 whole entry): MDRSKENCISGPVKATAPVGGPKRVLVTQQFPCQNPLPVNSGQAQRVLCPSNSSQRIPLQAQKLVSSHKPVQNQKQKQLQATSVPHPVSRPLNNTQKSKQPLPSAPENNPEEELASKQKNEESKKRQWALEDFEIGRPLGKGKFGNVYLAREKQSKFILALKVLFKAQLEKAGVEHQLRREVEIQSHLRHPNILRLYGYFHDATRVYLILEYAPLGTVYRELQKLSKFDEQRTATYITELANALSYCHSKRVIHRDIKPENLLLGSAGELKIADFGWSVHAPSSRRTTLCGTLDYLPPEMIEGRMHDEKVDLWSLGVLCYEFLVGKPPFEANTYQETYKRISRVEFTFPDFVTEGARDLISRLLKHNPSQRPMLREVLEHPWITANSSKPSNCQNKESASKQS
pIC50: −log10 of the molar value.

{"compound": "CCN(CCCOc1cc2ncnc(Nc3cnc(NC(=O)c4ccc(F)c(Cl)c4)nc3)c2cc1OC)CCOP(=O)(O)O [Compound 24]", "pIC50": 9.52}

----------
target: Aurora-B (Homo sapiens, UniProt Q96GD4); construct: 6-histidine; assay: In vitro Aurora-B kinase inhibition test; settings: recombinant Aurora-B, 33P-ATP peptide substrate, 60 minutes room temperature; read-out: concentration giving 50% inhibition of enzyme activity
Sequence (Q96GD4 whole entry): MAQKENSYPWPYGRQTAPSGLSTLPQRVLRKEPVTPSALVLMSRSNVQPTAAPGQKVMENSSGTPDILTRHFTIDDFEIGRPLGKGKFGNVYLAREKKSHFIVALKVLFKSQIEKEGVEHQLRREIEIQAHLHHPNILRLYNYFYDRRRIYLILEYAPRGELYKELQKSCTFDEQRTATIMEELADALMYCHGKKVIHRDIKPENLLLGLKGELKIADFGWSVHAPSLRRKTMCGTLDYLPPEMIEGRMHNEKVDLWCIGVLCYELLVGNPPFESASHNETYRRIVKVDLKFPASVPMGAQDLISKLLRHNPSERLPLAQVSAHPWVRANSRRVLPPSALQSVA

{"compound": "CCN(CCCOc1cc2ncnc(Nc3cnc(NC(=O)c4ccc(F)c(Cl)c4)nc3)c2cc1OC)CCOP(=O)(O)O [Compound 24]", "unit_symbol": "nM", "IC50": 12.3}
